Below is a list of entries, each paired with its recorded pKi value.
Biological target: Sigma non-opioid intracellular receptor 1 (Homo sapiens, UniProt Q99720)
Sequence (Q99720 whole entry): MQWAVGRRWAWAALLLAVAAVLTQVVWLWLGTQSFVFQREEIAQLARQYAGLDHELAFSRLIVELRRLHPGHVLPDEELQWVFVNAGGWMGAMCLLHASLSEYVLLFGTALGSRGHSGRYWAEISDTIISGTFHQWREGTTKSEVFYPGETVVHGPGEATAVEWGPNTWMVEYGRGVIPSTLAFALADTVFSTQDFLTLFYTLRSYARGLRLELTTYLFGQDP
Test: biochemical
Description: Displacement of [3H](+)pentazocine from human sigma 1 receptor transfected in HEK293 cell membranes after 120 mins by scintillation counter
pKi: −log10 of the molar value.
readout name: pKi

structure smiles: Cc1cc(OCCCCn2ccc3c2CCCC3=O)nn1-c1ccc(Cl)c(Cl)c1
reported relation: <
recorded measurement: 6.00
--
structure smiles: CC(C)(C)n1ccc(OCCN2CCOCC2)n1
reported relation: <
recorded measurement: 6.00
--
structure smiles: Cc1cc(OCCCCN2CCC(c3ccccc3)CC2)nn1-c1ccc(Cl)c(Cl)c1
reported relation: =
recorded measurement: 7.59
--
structure smiles: COCCN(C)CCCCOc1ccn(-c2ccc(Cl)c(Cl)c2)n1
reported relation: =
recorded measurement: 8.09
--
structure smiles: Clc1ccc(-n2ccc(OCCCCN3CCSCC3)n2)cc1Cl
reported relation: =
recorded measurement: 7.99
